Values compiled from patent US11198699B2.

measured-target: PRMT5/MEP50 (Homo sapiens (Human))
Sequence (O14744 whole entry): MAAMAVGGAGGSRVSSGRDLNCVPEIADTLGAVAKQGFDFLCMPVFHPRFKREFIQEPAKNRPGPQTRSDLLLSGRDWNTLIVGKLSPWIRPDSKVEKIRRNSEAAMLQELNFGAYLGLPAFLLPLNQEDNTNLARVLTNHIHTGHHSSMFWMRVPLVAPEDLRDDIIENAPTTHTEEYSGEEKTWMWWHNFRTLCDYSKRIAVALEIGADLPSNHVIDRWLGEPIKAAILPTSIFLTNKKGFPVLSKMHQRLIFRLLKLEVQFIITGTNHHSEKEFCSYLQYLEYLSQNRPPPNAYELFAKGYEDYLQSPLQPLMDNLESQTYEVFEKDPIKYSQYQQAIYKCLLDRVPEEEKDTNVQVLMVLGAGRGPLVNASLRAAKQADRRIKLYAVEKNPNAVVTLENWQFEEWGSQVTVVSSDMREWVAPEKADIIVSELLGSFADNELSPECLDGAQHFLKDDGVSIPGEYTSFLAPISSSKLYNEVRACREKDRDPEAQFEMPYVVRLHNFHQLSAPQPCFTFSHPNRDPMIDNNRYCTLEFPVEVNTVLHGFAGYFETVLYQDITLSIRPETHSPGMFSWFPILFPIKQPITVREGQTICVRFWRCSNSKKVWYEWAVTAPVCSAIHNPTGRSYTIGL
Sequence (Q9BQA1 whole entry partner): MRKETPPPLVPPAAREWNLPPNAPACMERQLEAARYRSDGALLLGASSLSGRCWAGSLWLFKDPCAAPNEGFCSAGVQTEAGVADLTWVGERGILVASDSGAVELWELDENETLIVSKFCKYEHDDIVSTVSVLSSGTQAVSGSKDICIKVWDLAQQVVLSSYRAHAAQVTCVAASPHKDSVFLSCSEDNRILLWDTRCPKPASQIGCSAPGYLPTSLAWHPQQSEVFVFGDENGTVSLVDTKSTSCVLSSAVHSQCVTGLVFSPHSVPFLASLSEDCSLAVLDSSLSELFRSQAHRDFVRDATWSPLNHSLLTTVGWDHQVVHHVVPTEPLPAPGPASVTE
assay: PRMT5/MEP50 enzyme inhibition assay, Assay 2 (384-well, MALDI mass spectrometry, histone H4 1-21 peptide)
Assay type: biochemical
measurement-setup: 1 μM SAM, 0.1 μM histone H4 1-21 peptide, 18-hour incubation at rt
Method: Compounds were tested for inhibition of methyltransferase activity in 384-well plate assay format using mass spectrometry technology. In this enzyme inhibition assay, compounds were tested in a 11-dose IC50 mode with 3-serial dilution, in duplicate, starting at 1, 10, or 100 μM. […] Percent enzyme activity was calculated based on no inhibitor DMSO control as 100% activity. EC50 values were determined in GraphPad Prism 8 using the [inhibitor] vs. response—Variable slope (four parameters) function. […]
pIC50: −log10 of the molar value.
recorded-metric: pIC50

The compound C[C@]1(CCc2cc3nc(N)ccc3c(F)c2F)C[C@@H](n2ccc3c(N)ncnc32)[C@H](O)[C@@H]1O [Compound 41] , tested on PRMT5/MEP50 (Homo sapiens (Human)), showed pIC50 of > 9.00

The compound C[C@]1(CCc2ccc3ccc(N)nc3c2)C[C@@H](c2cnn3c(N)ncnc23)[C@H](O)[C@@H]1O [Compound 56] , tested on PRMT5/MEP50 (Homo sapiens (Human)), showed pIC50 of > 9.00

The compound C[C@]1(CCc2cc(F)c3cc(Cl)c(N)nc3c2)C[C@@H](n2ccc3c(N)ncnc32)[C@H](O)[C@@H]1O [Compound 30] , tested on PRMT5/MEP50 (Homo sapiens (Human)), showed pIC50 of > 9.00

The compound Nc1ccc2ccc(CC[C@@]34C[C@@H]3[C@@H](n3ccc5c(N)ncnc53)[C@H](O)[C@@H]4O)cc2n1 [Compound 13] , tested on PRMT5/MEP50 (Homo sapiens (Human)), showed pIC50 of > 9.00

The compound C[C@]1(CCc2cc(F)c3cc(Cl)c(N)nc3c2)C[C@@H](n2cc(F)c3c(N)nccc32)[C@H](O)[C@@H]1O [Compound 43] , tested on PRMT5/MEP50 (Homo sapiens (Human)), showed pIC50 of > 9.00

The compound C[C@]1(CCc2ccc3ccc(N)nc3n2)C[C@@H](n2ccc3c(N)ncnc32)[C@H](O)[C@@H]1O [Compound 24] , tested on PRMT5/MEP50 (Homo sapiens (Human)), showed pIC50 of > 9.00

The compound CC(C)C(=O)O[C@H]1[C@H](n2ccc3c(N)ncnc32)C[C@](C)(CCc2ccc3nc(N)ccc3c2)[C@H]1OC(=O)C(C)C [Compound 26-A] , tested on PRMT5/MEP50 (Homo sapiens (Human)), showed pIC50 of < 7.00

The compound C=C1[C@@H](n2ccc3c(N)ncnc32)[C@H](O)[C@H](O)[C@H]1CCc1ccc2cc(Br)c(N)nc2c1 [Compound 4] , tested on PRMT5/MEP50 (Homo sapiens (Human)), showed pIC50 of > 9.00

The compound C[C@]1(CCc2ccc3ccc(N)nc3c2)C[C@@H](n2ccc3c(N)ncc(F)c32)[C@H](O)[C@@H]1O [Compound 21] , tested on PRMT5/MEP50 (Homo sapiens (Human)), showed pIC50 of > 9.00

The compound C[C@]1(CCc2cc(F)c3cc(Cl)c(N)nc3c2)C[C@@H](c2ccc3c(N)ncnn23)[C@H](O)[C@@H]1O [Compound 57] , tested on PRMT5/MEP50 (Homo sapiens (Human)), showed pIC50 of > 9.00

The compound C[C@]1(CCc2ccc3cc(Cl)c(N)nc3c2)C[C@@H](n2ccc3c(N)ncnc32)[C@H](O)[C@]1(C)O [Compound 28] , tested on PRMT5/MEP50 (Homo sapiens (Human)), showed pIC50 of > 9.00

The compound Nc1nc2cc(OC[C@H]3C[C@@H](n4ccc5c(N)ncnc54)[C@H](F)[C@@H]3O)ccc2cc1Br [Compound 11] , tested on PRMT5/MEP50 (Homo sapiens (Human)), showed pIC50 of 7.00 to 9.00

The compound C[C@]1(CCc2ccc3cc(C4CC4)c(N)nc3c2)C[C@@H](n2ccc3c(N)ncnc32)[C@H](O)[C@@H]1O [Compound 14] , tested on PRMT5/MEP50 (Homo sapiens (Human)), showed pIC50 of > 9.00
